Numbers sourced from patent US20230148214A1.

# Tested on: LRRK2 G2019S (Homo sapiens, UniProt Q5S007, G2019S)
# Sequence (Q5S007 whole entry G2019S): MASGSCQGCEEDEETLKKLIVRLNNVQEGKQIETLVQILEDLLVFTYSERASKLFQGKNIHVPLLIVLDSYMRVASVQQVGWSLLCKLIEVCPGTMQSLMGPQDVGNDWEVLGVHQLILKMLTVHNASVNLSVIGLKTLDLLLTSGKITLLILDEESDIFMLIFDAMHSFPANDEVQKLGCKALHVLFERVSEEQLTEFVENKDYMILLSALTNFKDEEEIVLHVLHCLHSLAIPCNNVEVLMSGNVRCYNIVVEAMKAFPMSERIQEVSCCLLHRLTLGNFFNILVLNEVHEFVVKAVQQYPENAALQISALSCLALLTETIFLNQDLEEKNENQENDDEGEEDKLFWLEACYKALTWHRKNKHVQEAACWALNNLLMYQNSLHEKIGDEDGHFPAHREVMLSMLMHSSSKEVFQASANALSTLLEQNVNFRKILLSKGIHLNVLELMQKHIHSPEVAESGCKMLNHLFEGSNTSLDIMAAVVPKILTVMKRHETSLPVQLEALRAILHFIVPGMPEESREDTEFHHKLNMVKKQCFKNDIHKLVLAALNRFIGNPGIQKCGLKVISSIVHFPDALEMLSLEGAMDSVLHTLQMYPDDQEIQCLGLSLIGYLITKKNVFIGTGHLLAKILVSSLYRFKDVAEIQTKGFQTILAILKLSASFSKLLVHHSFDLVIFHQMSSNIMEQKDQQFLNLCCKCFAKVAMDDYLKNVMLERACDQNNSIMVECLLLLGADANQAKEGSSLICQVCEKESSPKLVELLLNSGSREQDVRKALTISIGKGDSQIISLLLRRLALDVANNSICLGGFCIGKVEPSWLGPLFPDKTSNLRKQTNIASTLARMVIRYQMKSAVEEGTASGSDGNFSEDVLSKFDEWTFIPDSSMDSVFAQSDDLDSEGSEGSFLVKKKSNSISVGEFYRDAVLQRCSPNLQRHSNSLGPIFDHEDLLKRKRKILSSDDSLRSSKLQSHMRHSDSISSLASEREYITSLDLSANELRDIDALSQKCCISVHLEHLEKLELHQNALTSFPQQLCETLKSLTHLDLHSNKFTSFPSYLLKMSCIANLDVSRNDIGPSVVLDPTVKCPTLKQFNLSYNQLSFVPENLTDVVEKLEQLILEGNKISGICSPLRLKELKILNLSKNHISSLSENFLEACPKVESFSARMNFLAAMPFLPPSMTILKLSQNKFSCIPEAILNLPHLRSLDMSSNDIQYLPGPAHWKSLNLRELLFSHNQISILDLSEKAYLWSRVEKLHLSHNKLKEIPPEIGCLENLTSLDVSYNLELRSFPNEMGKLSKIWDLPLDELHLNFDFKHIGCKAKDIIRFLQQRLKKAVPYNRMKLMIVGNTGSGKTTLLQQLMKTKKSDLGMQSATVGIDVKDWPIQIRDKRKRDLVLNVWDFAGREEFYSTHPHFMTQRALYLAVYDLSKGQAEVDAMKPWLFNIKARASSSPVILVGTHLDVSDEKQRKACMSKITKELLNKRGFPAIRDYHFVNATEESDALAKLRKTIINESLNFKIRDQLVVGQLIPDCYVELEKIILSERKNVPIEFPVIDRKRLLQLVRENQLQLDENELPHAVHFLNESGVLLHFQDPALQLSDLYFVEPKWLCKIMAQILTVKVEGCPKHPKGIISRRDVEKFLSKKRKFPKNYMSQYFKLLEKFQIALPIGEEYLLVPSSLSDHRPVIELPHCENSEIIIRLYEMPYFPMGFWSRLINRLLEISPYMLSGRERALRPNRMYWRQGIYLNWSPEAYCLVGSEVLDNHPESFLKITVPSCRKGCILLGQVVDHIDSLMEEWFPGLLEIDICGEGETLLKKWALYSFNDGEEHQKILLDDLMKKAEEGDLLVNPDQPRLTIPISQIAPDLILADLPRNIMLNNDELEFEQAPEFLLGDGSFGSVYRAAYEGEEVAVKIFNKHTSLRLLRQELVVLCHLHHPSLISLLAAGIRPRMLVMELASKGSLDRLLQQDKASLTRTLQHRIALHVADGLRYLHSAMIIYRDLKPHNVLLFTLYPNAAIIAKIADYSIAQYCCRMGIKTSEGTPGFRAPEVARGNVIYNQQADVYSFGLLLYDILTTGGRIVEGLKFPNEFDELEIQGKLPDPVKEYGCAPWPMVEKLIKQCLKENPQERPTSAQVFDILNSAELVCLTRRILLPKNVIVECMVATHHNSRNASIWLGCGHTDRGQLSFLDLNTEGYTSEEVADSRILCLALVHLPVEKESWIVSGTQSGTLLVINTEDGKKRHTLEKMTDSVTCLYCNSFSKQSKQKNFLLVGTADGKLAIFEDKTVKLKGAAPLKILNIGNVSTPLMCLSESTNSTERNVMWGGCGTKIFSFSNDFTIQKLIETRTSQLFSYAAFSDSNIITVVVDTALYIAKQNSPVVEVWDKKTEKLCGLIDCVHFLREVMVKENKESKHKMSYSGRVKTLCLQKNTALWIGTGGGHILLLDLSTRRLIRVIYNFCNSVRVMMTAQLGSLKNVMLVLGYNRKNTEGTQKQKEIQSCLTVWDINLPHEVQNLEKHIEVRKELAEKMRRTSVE
# Assay remarks: LRRK2 Kinase Activity Assay (LanthaScreen TR-FRET), G2019S
# Study conditions: recombinant G2019S-LRRK2, 25 μM ATP, 400 nM LRRKtide, 60 min; class symbols
pIC50: −log10 of the molar value.
Endpoint name: pIC50

Some solved entries appear below for comparison.
CN1CC=C(c2n[nH]c3ccc(N[C@H]4CCCc5cc(C#N)ccc54)cc23)CC1 (single isomer, unassigned) [Example 94] :: 5.00 to 6.00
N#Cc1cnc2c(n1)CC[C@@H]2Oc1ccc2[nH]nc(-c3cnco3)c2c1 (single isomer, unassigned) [182, enantiomer 1] :: > 7.00
COc1n[nH]c2ccc(O[C@H]3CCCc4cc(C#N)c(Br)nc43)cc12 (single isomer, unassigned) [188, enantiomer 2] :: 6.00 to 7.00

Dear colleague, could you send me pIC50 for each of the items below? Thanks.
1. N#Cc1cnc2c(c1)CCC[C@@H]2Nc1ccc2[nH]nc(-c3ccc[nH]3)c2c1 (single isomer, unassigned) [Example 148, enantiomer 2]
2. N#Cc1cnc2c(c1)CC[C@@H]2Oc1ccc2[nH]nc(-c3cnco3)c2c1 (single isomer, unassigned) [Example 103, enantiomer 1]
3. N#Cc1ccc2c(c1Cl)CCC[C@@H]2Nc1ccc2[nH]nc(-c3cnco3)c2c1 (single isomer, unassigned) [Example 143, enantiomer 1]

1. 6.00 to 7.00
2. > 7.00
3. > 7.00

----------
# Tested on: LRRK2 WT (Homo sapiens, UniProt Q5S007)
# Construct: purchased Life Technologies PR8604B
# Sequence (Q5S007 whole entry): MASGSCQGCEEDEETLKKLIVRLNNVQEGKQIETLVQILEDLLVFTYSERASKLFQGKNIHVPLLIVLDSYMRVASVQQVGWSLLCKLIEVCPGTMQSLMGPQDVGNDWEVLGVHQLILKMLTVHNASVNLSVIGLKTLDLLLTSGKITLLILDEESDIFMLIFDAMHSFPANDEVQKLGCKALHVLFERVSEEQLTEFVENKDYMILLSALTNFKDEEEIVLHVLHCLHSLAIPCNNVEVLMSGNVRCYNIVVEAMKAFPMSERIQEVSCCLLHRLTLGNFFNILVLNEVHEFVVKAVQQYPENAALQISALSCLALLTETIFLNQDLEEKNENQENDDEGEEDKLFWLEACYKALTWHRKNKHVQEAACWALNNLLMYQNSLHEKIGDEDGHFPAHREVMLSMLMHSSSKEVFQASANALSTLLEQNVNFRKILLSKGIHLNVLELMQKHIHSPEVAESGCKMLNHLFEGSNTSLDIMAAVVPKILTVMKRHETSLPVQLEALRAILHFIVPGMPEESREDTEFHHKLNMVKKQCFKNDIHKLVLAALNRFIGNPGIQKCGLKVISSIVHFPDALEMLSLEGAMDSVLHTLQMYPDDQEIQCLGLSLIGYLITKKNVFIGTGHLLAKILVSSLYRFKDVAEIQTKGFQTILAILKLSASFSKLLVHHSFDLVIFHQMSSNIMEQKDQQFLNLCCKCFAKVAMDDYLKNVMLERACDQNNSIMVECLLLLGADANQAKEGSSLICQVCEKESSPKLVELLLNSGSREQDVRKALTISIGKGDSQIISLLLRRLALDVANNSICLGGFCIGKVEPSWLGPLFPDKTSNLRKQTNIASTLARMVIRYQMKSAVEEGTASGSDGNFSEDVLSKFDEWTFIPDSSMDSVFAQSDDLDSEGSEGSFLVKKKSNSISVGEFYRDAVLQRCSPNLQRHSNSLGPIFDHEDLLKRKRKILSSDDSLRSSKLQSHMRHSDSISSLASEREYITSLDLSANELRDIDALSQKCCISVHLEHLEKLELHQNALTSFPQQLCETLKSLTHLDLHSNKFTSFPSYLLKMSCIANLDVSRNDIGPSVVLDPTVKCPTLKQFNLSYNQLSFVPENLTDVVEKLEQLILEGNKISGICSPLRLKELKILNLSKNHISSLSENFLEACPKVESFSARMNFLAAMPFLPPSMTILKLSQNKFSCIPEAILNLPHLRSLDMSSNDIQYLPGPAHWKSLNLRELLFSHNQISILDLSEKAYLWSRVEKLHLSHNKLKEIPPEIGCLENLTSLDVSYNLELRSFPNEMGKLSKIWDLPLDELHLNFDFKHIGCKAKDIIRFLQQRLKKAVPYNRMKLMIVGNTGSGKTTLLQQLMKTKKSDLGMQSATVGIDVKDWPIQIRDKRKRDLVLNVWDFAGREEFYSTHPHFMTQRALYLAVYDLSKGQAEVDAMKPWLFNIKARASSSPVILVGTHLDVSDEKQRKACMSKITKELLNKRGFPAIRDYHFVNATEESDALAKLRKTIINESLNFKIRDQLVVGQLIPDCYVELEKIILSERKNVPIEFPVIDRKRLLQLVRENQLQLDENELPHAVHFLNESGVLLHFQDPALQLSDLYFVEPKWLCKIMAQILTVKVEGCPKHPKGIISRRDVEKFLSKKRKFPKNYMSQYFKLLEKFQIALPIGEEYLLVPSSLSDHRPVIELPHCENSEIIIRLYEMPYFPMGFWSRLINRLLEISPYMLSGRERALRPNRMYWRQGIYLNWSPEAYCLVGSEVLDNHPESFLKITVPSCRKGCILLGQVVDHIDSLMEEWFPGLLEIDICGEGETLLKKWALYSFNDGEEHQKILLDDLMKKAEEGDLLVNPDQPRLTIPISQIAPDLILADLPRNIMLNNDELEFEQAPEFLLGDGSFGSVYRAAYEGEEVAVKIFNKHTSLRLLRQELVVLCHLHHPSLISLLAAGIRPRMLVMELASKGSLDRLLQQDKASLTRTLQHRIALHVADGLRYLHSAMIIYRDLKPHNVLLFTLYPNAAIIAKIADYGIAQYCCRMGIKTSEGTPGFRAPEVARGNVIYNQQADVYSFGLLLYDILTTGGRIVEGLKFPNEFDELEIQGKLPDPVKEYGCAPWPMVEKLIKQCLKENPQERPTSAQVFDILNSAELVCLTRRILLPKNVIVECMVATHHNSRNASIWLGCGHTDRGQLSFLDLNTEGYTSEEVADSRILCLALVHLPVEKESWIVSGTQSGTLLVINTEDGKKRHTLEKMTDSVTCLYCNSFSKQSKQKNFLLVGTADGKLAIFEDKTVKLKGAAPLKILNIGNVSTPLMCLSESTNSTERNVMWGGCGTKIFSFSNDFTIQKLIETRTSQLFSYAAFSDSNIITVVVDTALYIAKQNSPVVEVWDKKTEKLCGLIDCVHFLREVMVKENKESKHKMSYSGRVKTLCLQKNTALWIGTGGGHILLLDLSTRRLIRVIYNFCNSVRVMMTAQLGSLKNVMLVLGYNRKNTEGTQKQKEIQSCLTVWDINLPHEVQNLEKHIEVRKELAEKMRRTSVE
# Assay remarks: LRRK2 Kinase Activity Assay (LanthaScreen TR-FRET), wild type
# Type: biochemical
# Study conditions: recombinant wild type LRRK2, 25 μM ATP, 400 nM LRRKtide, 60 min; class symbols
pIC50: −log10 of the molar value.
Endpoint name: pIC50

Field: example entries. Status: answers known.
CCc1cc(-c2n[nH]c3ccc(N[C@H]4CCCc5cc(C#N)ccc54)cc23)ccn1 (single isomer, unassigned) [Example 116, enantiomer 2] :: > 7.00
N#Cc1cnc2c(c1)CCC[C@@H]2Oc1ccc2[nH]nc(-c3cnco3)c2c1 (single isomer, unassigned) [Example 16, enantiomer 2] :: > 7.00
Cc1n[nH]c2ccc(N[C@H]3CCCc4cc(C#N)ccc43)cc12 (single isomer, unassigned) [Example 43, enantiomer 1] :: 6.00 to 7.00
C[C@H]1CCc2cc(C#N)ccc2[C@H]1Nc1ccc2[nH]nc(-c3cnco3)c2c1 (single isomer, unassigned) [Example 173, enantiomer 1] :: > 7.00
COc1c(C#N)ccc2c1CCC[C@@H]2Nc1ccc2[nH]nc(-c3cnco3)c2c1 (single isomer, unassigned) [Example 101, enantiomer 2] :: > 7.00

For every record below, what is its pIC50?
1. [2H][C@]1(Nc2ccc3[nH]nc(-c4cnco4)c3c2)CCCc2cc(C#N)cnc21 (single isomer, unassigned) [Example 162, enantiomer 2]
2. N#Cc1ccc2c(c1)CCC[C@@H]2Nc1ccc2[nH]nc(CC3CC3)c2c1 (single isomer, unassigned) [Example 139, enantiomer 2]
3. Cc1ncc(-c2n[nH]c3ccc(O[C@H]4CCc5c4ccc(C#N)c5F)cc23)o1 (single isomer, unassigned) [Example 156, enantiomer 1]
4. Cc1ncc(-c2n[nH]c3ccc(O[C@H]4CCc5c4ccc(C#N)c5F)cc23)o1 (single isomer, unassigned) [Example 156, enantiomer 2]

> 7.00
5.00 to 6.00
> 7.00
> 7.00
